src = the Immune Epitope Database (IEDB)

assayedSystem: HLA-A*29:02
assayProtocol: IEDB peptide-MHC binding, purified MHC/competitive/fluorescence; filed as Kd, often an IC50 or EC50 that approximates it; bounds were set here for any values at or beyond the usual limits of such assays
condition: source organism: Cryptosporidium parvum Iowa II
pKd: −log10 of the molar value.
measuredParameter: pKd

query: Returns the measured pKd for the input sequence. Input: RLKHIFLIF
result: ≤ 4.70

---

assayedSystem: HLA-A*02:06
assayProtocol: IEDB peptide-MHC binding, purified MHC/competitive/fluorescence; filed as Kd, often an IC50 or EC50 that approximates it; bounds were set here for any values at or beyond the usual limits of such assays
condition: source organism: Shigella boydii Sb227
measuredParameter: Kd (nM)
Write the value in nM as a bare number.

query: Observed Kd on HLA-A*02:06 for GLDDSALDA , please.
result: 2100
